# System: HCT-116 colon
# Test details: NCI tumour cell line growth inhibition, 48 h
Measured TGI, listed per entry.

| Molecule | Assay system | TGI |
| --- | --- | --- |
| COc1ccc(C(C#N)NNc2nc(C)cc(=O)[nH]2)cc1OC (stereo unspecified) | HCT-116 colon | > 100 µM |
| CC(C)C1OC(=O)/C=C/C=C/C=C/C=C/C=C/CC(O)CC(O)CC(O)CC(O)CC(O)CC(O)CC(O)CC(O)/C=C/C1C (stereo unspecified) | HCT-116 colon | > 100 µM |
| Fc1ccc2[nH]c3c(NCCCN4CCOCC4)ncnc3c2c1 | HCT-116 colon | > 100 µM |
| O=c1oc2ccccc2n1CCN1CCCCC1 | HCT-116 colon | > 100 µM |
| NNC(=O)CCC(=O)NC1C2CC3CC(C2)CC1C3 (stereo unspecified) | HCT-116 colon | > 100 µM |
| c1ccc(-c2nn(-c3ccccc3)[n+](-c3ccccc3)n2)cc1 | HCT-116 colon | > 56.7 µM |

---

# System: 786-0 renal
# Test details: NCI tumour cell line growth inhibition, 48 h
Experimental readout: TGI

| Molecule | Experimental readout | Reported |
| --- | --- | --- |
| COC(=O)CCC12CCC(O1)c1ccccc12 (centres undefined) | TGI | > 100 µM |
| COc1ccc(-c2cn(-c3ccccc3)c(-c3ccccc3)n2)cc1OC | TGI | 13.5 µM |
| Cc1cccc(C(C)C)c1NC(=O)C(=O)CC(=O)c1c(C)n([O-])c2ccccc2[n+]1=O | TGI | > 100 µM |
| Cc1nc2c(sc3nc4ccccc4n32)c(=O)[nH]1 | TGI | > 100 µM |
| COc1cccc(NC(=O)CC(=O)N2N=C(C)C(N=Nc3ccc(S(=O)(=O)c4ccc(N=NC5C(=O)N(C(=O)CC(=O)Nc6cccc(OC)c6)N=C5C)cc4)cc3)C2=O)c1 (centres undefined) | TGI | > 100 µM |
| COc1cccc(C2c3cc4c(cc3OC(O)(CO)C2C(=O)O)OCO4)c1 (centres undefined) (tested in a mixture with another compound) | TGI | > 100 µM |
| CCCCN(Cc1ccc(F)cc1)c1ccc(CO)c(Cl)c1 | TGI | 25.6 µM |
| CC(=O)OC1c2ccccc2CCCCCCC12OCCO2 (centres undefined) | TGI | > 100 µM |
| CN(C)c1ccc2cc(-c3ccccc3F)c(N)nc2c1 | TGI | 14.3 µM |
| COc1cc2c(c(OC)c1OC)-c1ccc(SC)cc1[C@H](OC(=O)c1ccccc1)CC2 | TGI | > 100 µM |
| O=C(CSC(=S)N1CCOCC1)Nc1nc2c(s1)CCCC2 | TGI | > 100 µM |
| O=C(N/N=C\c1ccc2ccccc2c1)Nc1ccc([N+](=O)[O-])cc1 | TGI | > 62.8 µM |
| COc1cc(Nc2nc(N[C@H]3CCCC[C@@H]3N)nc3cc[nH]c(=O)c23)cc(OC)c1 | TGI | 18.8 µM |
| NNC(=O)CCC(=O)NC1C2CC3CC(C2)CC1C3 (centres undefined) | TGI | > 100 µM |

---

# System: HL-60(TB) leukemia
# Test details: NCI tumour cell line growth inhibition, 48 h; in the data active = GI50 below about 0.43 µM; inactive = the rest
Labels: yes = active, no = inactive

| Chemical string | Group label |
| --- | --- |
| Cc1nc2sc(C(=O)Nc3ccccc3)c(N)c2cc1C(=O)/C=C/c1ccccc1 | no |
| CC[C@H](CC#N)OC(=O)N[C@@H](C)c1cccc(NC(=O)Nc2ccc(-c3cnco3)c(OC)c2)c1 | yes |
| CCCCN(Cc1ccc(F)cc1)c1ccc(CO)c(Cl)c1 | no |
| Clc1nc(Cl)c2c(ncn2C/C=C\Cn2cnc3c(Cl)nc(Cl)nc32)n1 | no |
| Clc1nc(Cl)c2ncn(Cc3ccc(COc4cccc(OCc5ccc(Cn6cnc7c(Cl)nc(Cl)nc76)cc5)c4)cc3)c2n1 | no |
| CN(CCOc1ccc(C#N)cc1)CCOc1ccc(C#N)cc1 | no |
| CC(=O)Nc1ccc2c(c1)oc(=O)c1cc(NC(C)=O)ccc12 | no |
| Oc1ccc(CCCCCCc2ccc(O)cc2)cc1 | no |
| O=C1/C(=C/c2ccc(O)cc2)COc2ccc(-c3ccccc3)cc21 | no |
